The measured values listed here are drawn from patent US12583825B2.

Tested on: MDA-MB-231 cells
test summary: MDA-MB-231 proliferation assay
Assay type: cell-based
condition info: Homo sapiens, 72 hours, YO-PRO-1 readout
measured property: GI50 (nM)
Quick note: give the figure in nM, leave out the unit.

Report GI50 for "CC1(C)/C(=N/OCCOCC(F)(F)F)c2cc(O[C@H]3CC[C@@H](N)CC3)ccc2-c2ncnc(N)c21"
66.2

Report GI50 for "CO/N=C1\c2cc(O[C@@H]3CC[C@@H](N)[C@@H](F)C3)ccc2-c2ncnc(N)c2C1(C)C"
207

Report GI50 for "CC1(C)/C(=N/OCCCC(F)(F)F)c2cc(O[C@H]3CC[C@@H](N)CC3)ccc2-c2ncnc(N)c21"
373

====

experimental target: recombinant human CLK3 (Homo sapiens, UniProt P49761)
Sequence (P49761 whole entry): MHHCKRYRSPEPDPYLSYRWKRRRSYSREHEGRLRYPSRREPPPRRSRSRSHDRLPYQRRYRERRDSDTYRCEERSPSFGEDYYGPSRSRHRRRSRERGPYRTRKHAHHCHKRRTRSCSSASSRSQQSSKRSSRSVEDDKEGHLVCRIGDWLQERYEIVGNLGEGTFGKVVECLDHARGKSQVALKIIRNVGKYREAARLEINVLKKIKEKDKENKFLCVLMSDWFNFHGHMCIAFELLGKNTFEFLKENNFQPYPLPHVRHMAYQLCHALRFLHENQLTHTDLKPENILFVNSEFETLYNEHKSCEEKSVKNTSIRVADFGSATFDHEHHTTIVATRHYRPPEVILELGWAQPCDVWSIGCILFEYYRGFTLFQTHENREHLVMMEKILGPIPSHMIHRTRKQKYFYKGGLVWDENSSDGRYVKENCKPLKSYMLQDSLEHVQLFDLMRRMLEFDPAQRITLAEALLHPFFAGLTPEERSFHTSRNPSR
test summary: CLK3 kinase assay (LANCE Ultra)
condition info: 0.5 nM CLK3, 300 μM ATP, 3 hours at 30° C.
pIC50: −log10 of the molar value.
Kindly return Condition met if reported pIC50 is no lower than 8; return Condition not met if it is lower.

The following molecules have reported results that may help.
CO/N=C1\c2cc(O[C@H]3CC[C@H](N)CC3)sc2-c2ncnc(N)c2C1(C)C :: Condition not met
CO/N=C1/c2c(ccc(OC)c2Cl)-c2ncnc(N)c2C1(C)C :: Condition met
CC(=O)c1ccc2c(c1)/C(=N\OC[C@@H]1CNC(=O)O1)C(C)(C)c1c(N)ncnc1-2 :: Condition not met
CC1(C)/C(=N/OCCC(F)(F)F)c2cc(O[C@H]3CC[C@@H](N)CC3)ccc2-c2ncnc(N)c21 :: Condition not met
COC(=O)CO/N=C1\c2cc(O[C@H]3CC[C@H](N)CC3)ccc2-c2ncnc(N)c2C1(C)C :: Condition not met

Textbook exercise: given the entry "CC1(C)/C(=N/OCCCOCc2ccccc2)c2cc(O[C@H]3CC[C@H](N)CC3)ccc2-c2ncnc(N)c21" , state whether its pIC50 is greater than or equal to 8.
Condition not met

Textbook exercise: given the entry "COc1ccc2c(c1)/C(=N\OC[C@@H]1CN(C)C(=O)O1)C(C)(C)c1c(N)ncnc1-2" , state whether its pIC50 is greater than or equal to 8.
Condition met

Textbook exercise: given the entry "CO/N=C1\c2cc(OC)ccc2-c2ncnc(N)c2C1(C)C" , state whether its pIC50 is greater than or equal to 8.
Condition not met

Textbook exercise: given the entry "COc1ccc2c(c1)/C(=N\OCC(=O)O)C(C)(C)c1c(N)ncnc1-2" , state whether its pIC50 is greater than or equal to 8.
Condition not met

Textbook exercise: given the entry "N#CCCO/N=C1\c2cc(O[C@H]3CC[C@@H](N)CC3)ccc2-c2ncnc(N)c2C12CCCC2" , state whether its pIC50 is greater than or equal to 8.
Condition met

Textbook exercise: given the entry "COCCO/N=C1\c2cc(N[C@H]3CC[C@H](N)CC3)ccc2-c2ncnc(N)c2C1(C)C" , state whether its pIC50 is greater than or equal to 8.
Condition not met

====

System: MDA-MB-231 cells
test summary: MDA-MB-231 proliferation assay
Type: cell-based
condition info: Homo sapiens, 72 hours, YO-PRO-1 readout
measured property: GI50

# count of solved cases: 3
COc1ccc2c(c1)/C(=N\OC[C@H]1CNC(=O)C1)C(C)(C)c1c(N)ncnc1-2 :: > 2 µM
CO/N=C1\c2cc(O[C@H]3CC[C@H](N)CC3)cc(Cl)c2-c2ncnc(N)c2C1(C)C :: > 2 µM
CN1C[C@@H](CO/N=C2\c3cc(Cl)ccc3-c3ncnc(N)c3C2(C)C)OC1=O :: 0.445 µM

Report GI50 for "COc1ccc2c(c1)/C(=N\OCC(=O)NCCN)C(C)(C)c1c(N)ncnc1-2"
> 2 µM
